The measured values listed here are drawn from paper PMC8698377.

system: UGT; experiment: p-nitrophenol glucuronidation, possum hepatic microsomes; type: in vitro ADME, possum (Trichosurus vulpecula); conditions: 12.5 µM
ASSAY_ENDPOINT: p-nitrophenol glucuronidation activity
Provide the measurement as a number trailed by its unit.

**Q:** // returns reported p-nitrophenol glucuronidation activity for input CC12CCC(CC1=O)C2(C)C (stereo not drawn) [Camphor, camphor]
**A:** 4.01 ± 0.33 µmol/mg/min

**Q:** Fill blank: measured p-nitrophenol glucuronidation activity of the compound O=C(O)C1C2C=CC(C2)C1C(=O)O (stereo not drawn) is ____.
**A:** 3.90 ± 0.23 µmol/mg/min

**Q:** What p-nitrophenol glucuronidation activity value was documented for this compound, O=C(O)C1CC2C=CC1O2 (stereo not drawn) ?
**A:** 4.02 ± 0.09 µmol/mg/min

**Q:** Consider the compound CC1(O)CCC(C(C)(C)O)CC1 (stereo in doubt) [Trans-terpin, trans-terpin] and give its measured p-nitrophenol glucuronidation activity.
**A:** 3.90 ± 0.34 µmol/mg/min

**Q:** Which value of p-nitrophenol glucuronidation activity has been reported for CC1(C)CCCCC1 [1,1-dimethylcyclohexane] in the records?
**A:** 4.08 ± 0.18 µmol/mg/min

**Q:** Would you kindly share the measured p-nitrophenol glucuronidation activity for COC(=O)[C@H]1CC[C@H](C(=O)OC)CC1 ?
**A:** 3.96 ± 0.20 µmol/mg/min
